System: Escherichia coli
experiment description: Anti-bacterial activity against Escherichia coli ATCC 11775 by 2-fold microtiter broth dilution method
Type: functional
run conditions: DSM 30083 = JCM 1649 = ATCC 11775
Calls of active or inactive are those of the source. The rule behind the calls is not given here.
quantity measured: Activity

Observe how each entry below is paired with its result.
[
  {
    "chemical structure": "O=C1O/C(=C\\c2cc(Br)c(O)c(Br)c2)C(c2cc(Br)c(O)c(Br)c2)=C1[C@@H](O)c1cc(Br)c(O)c(Br)c1",
    "assay system": "Escherichia coli",
    "Activity": "inactive"
  },
  {
    "chemical structure": "COc1c(Br)cc([C@H](O)C2=C(c3cc(Br)c(O)c(Br)c3)/C(=C/c3ccc(O)c(Br)c3)OC2=O)cc1Br",
    "assay system": "Escherichia coli",
    "Activity": "inactive"
  },
  {
    "chemical structure": "COc1ccc(C=C2OC(=O)C([C@@H](O)c3cc(Br)c(OC)c(Br)c3)=C2c2cc(Br)c(O)c(Br)c2)cc1Br",
    "assay system": "Escherichia coli",
    "Activity": "inactive"
  },
  {
    "chemical structure": "COc1c(Br)cc([C@H](O)C2=C(c3ccc(O)c(Br)c3)/C(=C/c3cc(Br)c(O)c(Br)c3)OC2=O)cc1Br",
    "assay system": "Escherichia coli",
    "Activity": "inactive"
  }
]

API: the following record is the query input.
Fill in the blank: the reported Activity of COc1ccc(C=C2OC(=O)C([C@@H](O)c3cc(Br)c(OC)c(Br)c3)=C2c2cc(Br)c(O)c(Br)c2)cc1 is ____.
inactive

###

In this section, each of the molecules is paired with its reported MIC.
Test system: Staphylococcus aureus
experiment description: Anti-bacterial activity against methicillin-resistant Staphylococcus aureus CCARM 3090 by 2-fold microtiter broth dilution method
Format: functional
Numbers only; they are read as µg/mL.

[
  {
    "chemical structure": "COc1ccc(C=C2OC(=O)C([C@@H](O)c3cc(Br)c(OC)c(Br)c3)=C2c2cc(Br)c(O)c(Br)c2)cc1",
    "unit text": "µg/mL",
    "MIC": 8
  },
  {
    "chemical structure": "COc1c(Br)cc([C@H](O)C2=C(c3cc(Br)c(O)c(Br)c3)/C(=C/c3ccc(O)c(Br)c3)OC2=O)cc1Br",
    "unit text": "µg/mL",
    "MIC": 2
  }
]

Enter reported MIC observed with Staphylococcus aureus for O=C1O/C(=C\c2cc(Br)c(O)c(Br)c2)C(c2cc(Br)c(O)c(Br)c2)=C1[C@@H](O)c1cc(Br)c(O)c(Br)c1
1

Enter reported MIC observed with Staphylococcus aureus for COc1ccc(C=C2OC(=O)C([C@@H](O)c3cc(Br)c(OC)c(Br)c3)=C2c2cc(Br)c(O)c(Br)c2)cc1Br
4

Enter reported MIC observed with Staphylococcus aureus for COc1c(Br)cc([C@H](O)C2=C(c3ccc(O)c(Br)c3)/C(=C/c3cc(Br)c(O)c(Br)c3)OC2=O)cc1Br
4

Enter reported MIC observed with Staphylococcus aureus for C[C@]12C[C@@]34C=CC(=O)[C@@](C)(CCC(=O)Nc5c(O)ccc(C(=O)O)c5O)[C@@H]3[C@H](C[C@@H]1C4)O2
8

###

Test system: Staphylococcus aureus
experiment description: Anti-bacterial activity against methicillin-resistant Staphylococcus aureus CCARM 3089 by 2-fold microtiter broth dilution method
Format: functional
quantity measured: MIC (µg/mL)
Numbers only; they are read as µg/mL.

Observe how each entry below is paired with its result.
[
  {
    "chemical structure": "COc1c(Br)cc([C@H](O)C2=C(c3cc(Br)c(O)c(Br)c3)/C(=C/c3ccc(O)c(Br)c3)OC2=O)cc1Br",
    "MIC [µg/mL]": 2
  },
  {
    "chemical structure": "COc1c(Br)cc([C@H](O)C2=C(c3ccc(O)c(Br)c3)/C(=C/c3cc(Br)c(O)c(Br)c3)OC2=O)cc1Br",
    "MIC [µg/mL]": 4
  }
]

Fill in the blank: the reported MIC of COc1ccc(C=C2OC(=O)C([C@@H](O)c3cc(Br)c(OC)c(Br)c3)=C2c2cc(Br)c(O)c(Br)c2)cc1 is ____.
4

Fill in the blank: the reported MIC of O=C1O/C(=C\c2cc(Br)c(O)c(Br)c2)C(c2cc(Br)c(O)c(Br)c2)=C1[C@@H](O)c1cc(Br)c(O)c(Br)c1 is ____.
1

Fill in the blank: the reported MIC of COc1ccc(C=C2OC(=O)C([C@@H](O)c3cc(Br)c(OC)c(Br)c3)=C2c2cc(Br)c(O)c(Br)c2)cc1Br is ____.
8

Fill in the blank: the reported MIC of C[C@]12C[C@@]34C=CC(=O)[C@@](C)(CCC(=O)Nc5c(O)ccc(C(=O)O)c5O)[C@@H]3[C@H](C[C@@H]1C4)O2 is ____.
8
